# target.or.system: VEGFR2 (Homo sapiens, UniProt P35968)
# Sequence (P35968 20-1356): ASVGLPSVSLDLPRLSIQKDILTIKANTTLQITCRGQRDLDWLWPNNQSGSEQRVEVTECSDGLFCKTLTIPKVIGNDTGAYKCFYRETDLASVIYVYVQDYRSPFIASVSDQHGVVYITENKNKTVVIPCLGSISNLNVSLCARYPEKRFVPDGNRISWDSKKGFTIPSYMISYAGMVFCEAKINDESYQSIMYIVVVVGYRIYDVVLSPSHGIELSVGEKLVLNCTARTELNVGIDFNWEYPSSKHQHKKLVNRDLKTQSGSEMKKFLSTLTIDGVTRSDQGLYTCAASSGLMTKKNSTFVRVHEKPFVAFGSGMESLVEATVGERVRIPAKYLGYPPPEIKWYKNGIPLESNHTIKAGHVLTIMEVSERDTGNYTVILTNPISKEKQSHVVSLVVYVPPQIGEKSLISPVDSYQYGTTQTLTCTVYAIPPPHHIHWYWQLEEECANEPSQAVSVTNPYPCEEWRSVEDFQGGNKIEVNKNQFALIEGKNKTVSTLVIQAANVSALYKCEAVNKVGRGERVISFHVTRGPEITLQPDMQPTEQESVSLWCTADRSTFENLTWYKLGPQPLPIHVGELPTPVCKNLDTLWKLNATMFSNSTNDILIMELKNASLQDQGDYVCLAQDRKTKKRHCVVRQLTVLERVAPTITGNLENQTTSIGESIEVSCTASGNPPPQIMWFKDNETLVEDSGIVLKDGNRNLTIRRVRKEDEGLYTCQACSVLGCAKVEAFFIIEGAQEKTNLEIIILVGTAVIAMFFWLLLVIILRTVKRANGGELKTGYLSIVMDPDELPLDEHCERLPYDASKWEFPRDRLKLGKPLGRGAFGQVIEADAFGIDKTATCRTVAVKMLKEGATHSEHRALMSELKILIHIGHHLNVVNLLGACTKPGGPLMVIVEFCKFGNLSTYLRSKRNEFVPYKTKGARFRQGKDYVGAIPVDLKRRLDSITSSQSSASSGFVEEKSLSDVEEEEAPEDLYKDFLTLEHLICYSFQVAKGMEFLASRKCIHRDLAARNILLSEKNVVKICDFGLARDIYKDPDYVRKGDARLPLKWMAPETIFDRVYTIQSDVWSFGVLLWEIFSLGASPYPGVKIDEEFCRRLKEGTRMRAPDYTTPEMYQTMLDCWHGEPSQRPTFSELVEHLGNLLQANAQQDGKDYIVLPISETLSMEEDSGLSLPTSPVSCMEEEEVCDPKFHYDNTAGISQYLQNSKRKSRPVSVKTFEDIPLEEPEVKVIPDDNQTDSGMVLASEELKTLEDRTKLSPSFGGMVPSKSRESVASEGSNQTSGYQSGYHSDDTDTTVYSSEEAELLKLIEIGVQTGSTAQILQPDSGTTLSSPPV
# test.details: Cellular kinase phosphorylation assay (sandwich ELISA), HUVECs, VEGF-A stimulated
# Assay type: cell-based
# Set-up: endogenous in cells; host or cells: HUVEC
# conditions.used: HUVECs, VEGF-A 100 ng/ml; read-out: IC50, phosphorylation of VEGFR2
quantity.name: pIC50
Notebook: values listed as pIC50 are -log10 of the concentration (mol/L).

State, in one line, measured pIC50 of Cc1c(C(=O)Nc2ccc(Oc3ccnc4cc(OCC(C)(C)O)ccc34)c(F)c2)c(=O)n(-c2ccccc2)n1C [CT053] 8.96
